tested on: Staphylococcus aureus ATCC 33591 (MRSA); assay: Antibacterial broth microdilution assay (MIC), MRSA ATCC 33591; type: cell-based; conditions: Staphylococcus aureus; amount inhibiting >95% of growth (A600), 18 h; suffix 'I' = partial growth inhibition at the value, >95% at higher concentrations; read-out: MIC ATCC 33591
READOUT_TYPE: MIC

Name the reported MIC value associated with the compound CCOC(=O)C1=C(c2ccccc2)NC(N)=NC1c1cc(C)cc(C)c1 (stereo not drawn)
> 64 µg/mL

Endpoint output: MIC of CCOC(=O)C1=C(c2cccc(C(F)(F)F)c2)NC(N)=NC1c1cc(Cl)cc(Cl)c1 (stereo not drawn) . Value?
4 µg/mL

Which MIC value is on record for CC[C@H]1OC(=O)[C@H](C)[C@@H](O[C@H]2C[C@@](C)(OC)[C@@H](O)[C@H](C)O2)[C@H](C)[C@@H](O[C@@H]2O[C@H](C)C[C@H](N(C)C)[C@H]2O)[C@](C)(O)C[C@@H](C)C(=O)[C@H](C)[C@@H](O)[C@]1(C)O [erythromycin, reference compound] ?
> 512 µg/mL

---

Each entry below lists one item and its recorded log10 of MIC value.
tested on: Staphylococcus aureus ATCC 33591 (MRSA); assay: Antibacterial broth microdilution assay (MIC), MRSA ATCC 33591; format: cell-based; conditions: Staphylococcus aureus; amount inhibiting >95% of growth (A600), 18 h; suffix 'I' = partial growth inhibition at the value, >95% at higher concentrations; read-out: MIC ATCC 33591
Transform log10 | Measure MIC | Unit µg/mL

Some solved cases for reference:
CCOC(=O)C1=C(c2ccccc2)NC(N)=NC1c1ccc(C(F)(F)F)cc1 (centres unmarked) [6e] | 1.20
CCOC(=O)C1=C(c2ccccc2)NC(N)=NC1c1ccc([N+](=O)[O-])cc1 (centres unmarked) [6c] | 1.81
CCOC(=O)C1=C(c2ccccc2)NC(N)=NC1c1cccc(Cl)c1 (centres unmarked) [6i] | 1.51
CC1(C)S[C@@H]2[C@H](NC(=O)C(C(=O)O)c3ccccc3)C(=O)N2[C@H]1C(=O)O (some centres unmarked) [carbenicillin, reference compound] | 2.11
CCOC(=O)C1=C(c2cccc(F)c2)NC(N)=NC1c1ccc(CC(C)C)cc1 (centres unmarked) [7h] | 0.60

Consider the additional compound presented here.
Which measured log10 of MIC value corresponds to CCOC(=O)C1=C(c2ccccc2)NC(N)=NC1c1ccc(-c2ccccc2)cc1 (centres unmarked) [7b] ?
0.60

---

System: Staphylococcus aureus
Experiment: S. aureus growth inhibition (all three strains or strain not specified)
Type: cell-based
Settings: Staphylococcus aureus; all three S. aureus strains or strain not specified; read-out: concentration inhibiting S. aureus growth (MIC)
Source text: These 24 DHP analogues were then screened for inhibition of Staphylococcus aureus growth using microdilution assays. Growth inhibition was examined in methicillin-sensitive S. aureus (ATCC 12600) and two strains of MRSA (ATCC 33591 and ATCC 43300). […]
In this section, each of the compounds is paired with its reported MIC.
Write the number in µg/mL without appending the unit.

CCOC(=O)C1=C(c2ccccc2)NC(N)=NC1c1ccc(-c2ccccc2)cc1 (centres unmarked) | 4

Recorded MIC for CCOC(=O)C1=C(c2ccccc2)NC(N)=NC1c1ccc(CC(C)C)cc1 (centres unmarked) , please?
4

These data points were gathered from paper PMC11247627.
